- procedure summary: Displacement of [3H]Glyburide from ATP-sensitive potassium channel in hamster pancreatic HIT-T15 cells after 2 hrs
- Format: cell-based, Mesocricetus auratus
measured property: IC50
// return the numeric value with its unit appended

Returns the measured IC50 for the input compound. Input: COc1ccc(Cl)cc1C(=O)NCCc1ccc(S(=O)(=O)NC(=O)NC2CCCCC2)cc1 [GLYBURIDE]
5.7 nM

====

- procedure summary: Displacement of [3H]GABA from GABA transporter in Wistar rat cerebral cortex after 20 mins
- Type: tissue-based
measured property: pIC50
Convention used: pIC50 is expressed as -log10 of the molar concentration.

Could you tell me which pIC50 is on file for O=C(O)C1=CCCN(CCON=C(c2ccccc2)c2ccccc2)C1 ?
6.70

====

- assayed system: Neuropeptide Y receptor type 2 (Homo sapiens)
- Sequence (P49146 whole entry): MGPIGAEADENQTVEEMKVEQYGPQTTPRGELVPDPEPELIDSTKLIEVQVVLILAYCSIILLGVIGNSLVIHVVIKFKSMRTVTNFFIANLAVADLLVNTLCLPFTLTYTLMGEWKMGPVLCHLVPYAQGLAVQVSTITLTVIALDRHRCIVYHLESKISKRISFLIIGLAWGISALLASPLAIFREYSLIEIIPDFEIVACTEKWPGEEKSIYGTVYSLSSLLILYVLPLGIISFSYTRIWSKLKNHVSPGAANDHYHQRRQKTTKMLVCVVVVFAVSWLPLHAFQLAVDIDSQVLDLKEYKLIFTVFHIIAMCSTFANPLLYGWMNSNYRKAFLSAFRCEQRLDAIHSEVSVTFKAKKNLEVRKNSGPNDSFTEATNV
- procedure summary: Displacement of [125I]Peptide YY from neuropeptide Y receptor type 2 in human KAN-TS cells after 2 hrs
- Format: cell-based
measured property: Ki (nM)
Record the value in nM, omitting the unit from your answer.

Name the reported Ki value associated with the substance H-PAEDLARYYSALRHYITRRQRY-NH2
0.12
